Readings of EC50 for the listed compounds
- EXPERIMENTAL_TARGET: Gal4-RORγ-LBD (Homo sapiens, UniProt P51449)
- Construct: expressed in transfected cells; host or cells: HEK-293 cells (pcDNA3.1neo plasmid)
- TEST_DETAILS: Gal4-RORγ Luciferase Reporter Assay in HEK-293T Cells
- Type: cell-based
- ASSAY_CONDITIONS: HEK-293 cells, luciferase reporter, with 2 μM ursolic acid

[
  {
    "COMPOUND": "Cc1ccc(Cl)c(-c2ccc3c(c2)N(S(=O)(=O)c2cccc(C(F)(F)F)c2)C[C@H](CCC(=O)O)O3)c1 [Compound 2BK]",
    "EXPERIMENTAL_TARGET": "Gal4-RORγ-LBD (Homo sapiens, UniProt P51449)",
    "EC50": "< 500 nM"
  }
]

Given the entry O=C(O)CC[C@H]1CN(S(=O)(=O)c2cccc(C(F)(F)F)c2)c2cc(-c3cc(Cl)ccc3Cl)ccc2O1 [Compound 2AM] , report its measured EC50.
< 500 nM

* * *

Readings of pEC50 for the listed compounds
- EXPERIMENTAL_TARGET: Gal4-RORγ-LBD (Homo sapiens, UniProt P51449)
- Construct: expressed in transfected cells; host or cells: HEK-293 cells (pcDNA3.1neo plasmid)
- TEST_DETAILS: Gal4-RORγ Luciferase Reporter Assay in HEK-293T Cells
- Assay type: cell-based
- ASSAY_CONDITIONS: HEK-293 cells, luciferase reporter, with 2 μM ursolic acid
- From the text: Assay procedures and results are described below. […] The cells were harvested as described above, counted, and centrifuged to obtain the desired number of cells, then re-suspended in complete growth media at 0.75×10^6 cells/mL. […] The luciferase intensity was read on an Envision plate reader (Perkin Elmer). […] The Max Response is the upper plateau in the signal as determined by line-fit using a 4-parameter logistic model in PRISM (GraphPad).
pEC50: −log10 of the molar value.

[
  {
    "COMPOUND": "CC(C)c1cccc(-c2ccc3c(c2)N(S(=O)(=O)c2cccc(C(F)(F)F)c2)C[C@H](CCC(=O)O)O3)c1",
    "RECORDED_VALUE": "> 6.30"
  },
  {
    "COMPOUND": "O=C(O)CC[C@H]1CN(S(=O)(=O)c2cccc(C(F)(F)F)c2)c2cc(-c3ccccc3C(F)(F)F)ccc2O1",
    "RECORDED_VALUE": "5.30 to 6.30"
  },
  {
    "COMPOUND": "CN(CC(=O)O)C(=O)NCC[C@H]1CN(S(=O)(=O)c2cccc(C(F)(F)F)c2)c2cc(-c3cc(F)ccc3F)ccc2O1 [Compound 23W]",
    "RECORDED_VALUE": "> 6.30"
  },
  {
    "COMPOUND": "CC(=O)OCC(=O)NC[C@H]1CN(S(=O)(=O)c2cccc(C(F)(F)F)c2)c2cc(-c3cc(F)ccc3F)ccc2O1 [Compound 30AY]",
    "RECORDED_VALUE": "> 6.30"
  },
  {
    "COMPOUND": "COc1cccc(-c2ccc3c(c2)N(S(=O)(=O)c2cccc(C(F)(F)F)c2)C[C@H](CC(C)(C)C(=O)O)O3)c1 [Compound 32B]",
    "RECORDED_VALUE": "> 6.30"
  },
  {
    "COMPOUND": "CC(C)(O)C(=O)NCC[C@H]1CN(S(=O)(=O)c2cccc(OC(F)F)c2)c2cc(-c3cc(F)ccc3F)ccc2O1 [Compound 30P]",
    "RECORDED_VALUE": "> 6.30"
  },
  {
    "COMPOUND": "COc1cccc(-c2cc(F)c3c(c2)N(S(=O)(=O)c2cccc(C(F)(F)F)c2)C[C@H](CCC(=O)N2CCC(C(=O)O)CC2)O3)c1 [Compound 23H]",
    "RECORDED_VALUE": "> 6.30"
  },
  {
    "COMPOUND": "O=C(O)CC[C@H]1CN(S(=O)(=O)c2cccc(C(F)(F)F)c2)c2cc(-c3cccc(C(F)(F)F)c3F)ccc2O1",
    "RECORDED_VALUE": "> 6.30"
  }
]

Given the entry O=C(O)CC[C@H]1CN(S(=O)(=O)c2cccc(C(F)(F)F)c2)c2cc(-c3cc(C(F)(F)F)ccc3F)ccc2O1 , report its measured pEC50.
> 6.30

Also O=C(O)CC[C@H]1CN(S(=O)(=O)c2cccc(C(F)(F)F)c2)c2cc(-c3cc(Cl)cc(Cl)c3)ccc2O1 , if possible.
> 6.30

Also O=C(O)[C@@H](O)CC[C@H]1CN(S(=O)(=O)c2cccc(C(F)(F)F)c2)c2cc(-c3cc(F)ccc3F)ccc2O1 , if possible.
5.30 to 6.30

Also O=C(O)C1CCN(C(=O)CC[C@H]2CN(S(=O)(=O)c3cccc(C(F)(F)F)c3)c3cc(-c4cccc(C(F)(F)F)n4)ccc3O2)CC1 [Compound 23F] , if possible.
> 6.30

Also O=c1[nH]c(OCCC[C@H]2CN(S(=O)(=O)c3cccc(C(F)(F)F)c3)c3cc(-c4cc(F)cc(F)c4)ccc3O2)no1 [Compound 36A] , if possible.
> 6.30

* * *

- EXPERIMENTAL_TARGET: RORγ-LBD (Homo sapiens, UniProt P51449)
- Sequence (P51449 269-508 limits assumed): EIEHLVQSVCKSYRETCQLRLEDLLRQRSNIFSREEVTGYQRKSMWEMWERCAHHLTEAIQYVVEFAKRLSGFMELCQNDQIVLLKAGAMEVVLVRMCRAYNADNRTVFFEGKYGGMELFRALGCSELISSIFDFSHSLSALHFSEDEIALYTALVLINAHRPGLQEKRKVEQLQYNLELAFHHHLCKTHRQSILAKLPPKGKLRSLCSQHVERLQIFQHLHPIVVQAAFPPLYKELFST
- TEST_DETAILS: RORγ-Ligand Binding Domain (LBD) TR-FRET Assay
QUANTITY_MEASURED: EC50

Given the entry CC(C)(C[C@H]1CN(S(=O)(=O)c2cccc(C(F)(F)F)c2)c2cc(-c3cc(OC(F)F)ccc3F)ccc2O1)C(=O)O [Compound 32BI] , report its measured EC50.
< 500 nM

Also O=C(O)C1CCN(C(=O)NC[C@H]2CN(S(=O)(=O)c3cccc(C(F)(F)F)c3)c3cc(-c4cc(F)ccc4F)ccc3O2)CC1 [Compound 23Q] , if possible.
< 500 nM

Also CN(CCC(=O)O)C(=O)NCC[C@H]1CN(S(=O)(=O)c2cccc(C(F)(F)F)c2)c2cc(-c3cc(F)ccc3F)ccc2O1 [Compound 23Y] , if possible.
< 500 nM

Also COc1cc(F)cc(-c2ccc3c(c2)N(S(=O)(=O)c2cccc(C(F)(F)F)c2)C[C@H](CCC(=O)O)O3)c1F , if possible.
< 500 nM

Also O=S(=O)(c1cccc(C(F)(F)F)c1)N1C[C@H]([C@H](O)CO)Oc2ccc(-c3cc(F)ccc3F)cc21 , if possible.
< 500 nM

Also O=C(O)C1(C[C@H]2CN(S(=O)(=O)c3cccc(C(F)(F)F)c3)c3cc(-c4cc(F)cc(F)c4Cl)ccc3O2)CCOCC1 [Compound 78C] , if possible.
< 500 nM

* * *

- EXPERIMENTAL_TARGET: Gal4-RORγ-LBD (Homo sapiens)
- Construct: expressed in transfected cells; host or cells: HEK-293 cells (pcDNA3.1neo plasmid)
- TEST_DETAILS: Gal4-RORγ Luciferase Reporter Assay in HEK-293T Cells
- Format: cell-based
- ASSAY_CONDITIONS: HEK-293 cells, 2 μM ursolic acid
QUANTITY_MEASURED: EC50

In the examples that follow, each entry is paired with its recorded EC50.
[
  {
    "COMPOUND": "CC1(C(=O)O)CC(C[C@H]2CN(S(=O)(=O)c3cccc(C(F)(F)F)c3)c3cc(-c4cc(F)cc(F)c4Cl)ccc3O2)C1 (stereo partly drawn) [Compound 60G]",
    "RECORDED_VALUE": "< 500 nM"
  },
  {
    "COMPOUND": "CC(C)(C[C@H]1CN(S(=O)(=O)c2cccc(C(F)(F)F)c2)c2cc(-c3cc(C(F)(F)F)ccc3Cl)ccc2O1)C(=O)O [Compound 32AD]",
    "RECORDED_VALUE": "< 500 nM"
  },
  {
    "COMPOUND": "COc1cccc(-c2ccc3c(c2)N(S(=O)(=O)c2cccc(C(F)(F)F)c2)C[C@H](CC(C)(C)C(=O)O)O3)c1OC [Compound 32V]",
    "RECORDED_VALUE": "< 500 nM"
  },
  {
    "COMPOUND": "CC(F)(F)C(=O)NC[C@H]1CN(S(=O)(=O)c2cccc(C(F)(F)F)c2)c2cc(-c3cccc(F)c3Cl)ccc2O1 [Compound 30CE]",
    "RECORDED_VALUE": "< 500 nM"
  },
  {
    "COMPOUND": "O=C(O)[C@H]1C[C@@H]1[C@H]1CN(S(=O)(=O)c2cccc(C(F)(F)F)c2)c2cc(-c3cc(F)ccc3F)ccc2O1",
    "RECORDED_VALUE": "500 to 5000 nM"
  }
]

Given the entry C[C@]1(C(=O)O)C[C@H](C[C@H]2CN(S(=O)(=O)c3cccc(C(F)(F)F)c3)c3cc(-c4cccc(C(F)(F)F)n4)ccc3O2)C1 [Compound 60N] , report its measured EC50.
< 500 nM
